The reported numbers originate from patent US20210087281A1.

biological target: native human MET on living cells (human, UniProt P08581 25-1390); test: cell-based or functional assay
Sequence (P08581 25-1390): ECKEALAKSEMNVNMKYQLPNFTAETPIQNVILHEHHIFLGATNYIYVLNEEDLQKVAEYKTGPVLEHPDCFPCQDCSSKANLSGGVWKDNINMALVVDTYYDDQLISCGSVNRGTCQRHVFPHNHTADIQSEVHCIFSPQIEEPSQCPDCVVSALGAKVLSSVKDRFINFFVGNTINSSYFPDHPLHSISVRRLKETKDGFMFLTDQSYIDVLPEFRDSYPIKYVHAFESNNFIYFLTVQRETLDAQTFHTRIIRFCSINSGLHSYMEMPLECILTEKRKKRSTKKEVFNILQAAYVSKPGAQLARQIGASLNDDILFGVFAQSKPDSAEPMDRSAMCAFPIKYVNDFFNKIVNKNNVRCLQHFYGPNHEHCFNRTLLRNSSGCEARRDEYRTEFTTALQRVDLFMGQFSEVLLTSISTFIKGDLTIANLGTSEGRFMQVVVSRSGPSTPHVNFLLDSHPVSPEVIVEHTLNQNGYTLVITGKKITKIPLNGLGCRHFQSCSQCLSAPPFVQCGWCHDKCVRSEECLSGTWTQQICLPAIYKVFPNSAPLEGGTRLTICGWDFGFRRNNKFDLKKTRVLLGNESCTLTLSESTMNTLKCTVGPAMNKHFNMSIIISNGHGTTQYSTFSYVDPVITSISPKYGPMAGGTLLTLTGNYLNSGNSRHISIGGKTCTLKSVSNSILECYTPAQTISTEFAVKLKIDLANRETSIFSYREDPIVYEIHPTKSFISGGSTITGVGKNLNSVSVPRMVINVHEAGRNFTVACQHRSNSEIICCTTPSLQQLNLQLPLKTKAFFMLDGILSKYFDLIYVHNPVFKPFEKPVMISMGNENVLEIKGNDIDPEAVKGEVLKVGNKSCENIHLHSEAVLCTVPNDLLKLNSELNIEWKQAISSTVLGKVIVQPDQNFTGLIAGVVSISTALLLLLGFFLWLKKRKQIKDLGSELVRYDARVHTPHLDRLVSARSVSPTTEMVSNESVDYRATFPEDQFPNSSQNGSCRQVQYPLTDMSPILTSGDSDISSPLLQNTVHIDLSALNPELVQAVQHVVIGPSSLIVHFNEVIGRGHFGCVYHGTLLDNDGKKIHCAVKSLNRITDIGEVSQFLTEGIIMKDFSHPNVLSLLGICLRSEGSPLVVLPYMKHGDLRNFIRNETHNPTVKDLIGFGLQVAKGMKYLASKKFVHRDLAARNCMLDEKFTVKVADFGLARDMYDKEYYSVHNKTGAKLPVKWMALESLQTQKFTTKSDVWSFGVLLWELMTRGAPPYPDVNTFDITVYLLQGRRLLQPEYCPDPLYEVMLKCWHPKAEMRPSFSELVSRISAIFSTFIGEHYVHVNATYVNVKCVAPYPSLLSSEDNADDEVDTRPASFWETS
metric-name: branches per spheroid, LOC cells, 12.5 nM (branches)
One number for each entry, in branches.

binder: 71G12 chimeric llama-human IgG1 mAb (antibody, V domains shown, llama VH on human IgG1 CH1-CH2-CH3, llama VL on human kappa CL) VH: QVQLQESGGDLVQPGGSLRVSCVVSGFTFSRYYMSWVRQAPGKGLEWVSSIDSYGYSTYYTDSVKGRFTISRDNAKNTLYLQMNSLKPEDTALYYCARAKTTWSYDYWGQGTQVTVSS VL: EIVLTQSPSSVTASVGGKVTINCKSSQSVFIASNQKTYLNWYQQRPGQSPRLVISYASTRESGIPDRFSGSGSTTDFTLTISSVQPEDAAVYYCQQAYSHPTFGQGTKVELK
unit-symbol: branches
quantitative-readout: 16

binder: 76G7 chimeric llama-human IgG1 mAb (antibody, V domains shown, llama VH on human IgG1 CH1-CH2-CH3, llama VL on human lambda CL) VH: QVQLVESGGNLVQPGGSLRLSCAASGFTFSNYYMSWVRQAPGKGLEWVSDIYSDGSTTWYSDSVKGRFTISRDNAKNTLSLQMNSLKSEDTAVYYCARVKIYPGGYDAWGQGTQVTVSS VL: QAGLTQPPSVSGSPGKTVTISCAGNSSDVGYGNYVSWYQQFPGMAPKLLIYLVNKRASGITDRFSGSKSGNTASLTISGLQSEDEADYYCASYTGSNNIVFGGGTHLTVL
unit-symbol: branches
quantitative-readout: 16.3

binder: 71D6 chimeric llama-human IgG1 mAb (antibody, V domains shown, llama VH on human IgG1 CH1-CH2-CH3, llama VL on human lambda CL) VH: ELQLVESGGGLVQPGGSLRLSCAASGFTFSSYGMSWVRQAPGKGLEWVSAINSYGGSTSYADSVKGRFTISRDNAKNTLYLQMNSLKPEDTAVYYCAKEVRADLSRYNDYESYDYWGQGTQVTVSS VL: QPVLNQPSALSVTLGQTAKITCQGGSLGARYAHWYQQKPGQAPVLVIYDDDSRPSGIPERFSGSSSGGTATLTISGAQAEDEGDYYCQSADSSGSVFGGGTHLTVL
unit-symbol: branches
quantitative-readout: 32.7

binder: 76H10 chimeric llama-human IgG1 mAb (antibody, V domains shown, llama VH on human IgG1 CH1-CH2-CH3, llama VL on human lambda CL) VH: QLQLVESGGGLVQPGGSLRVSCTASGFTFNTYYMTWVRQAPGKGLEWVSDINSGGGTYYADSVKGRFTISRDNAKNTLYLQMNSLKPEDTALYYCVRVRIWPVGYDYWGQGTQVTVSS VL: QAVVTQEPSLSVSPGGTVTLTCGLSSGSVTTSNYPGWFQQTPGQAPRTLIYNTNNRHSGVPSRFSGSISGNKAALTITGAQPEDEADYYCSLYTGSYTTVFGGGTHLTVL
unit-symbol: branches
quantitative-readout: 16.7

q: So what does the record say about branches per spheroid, LOC cells, 12.5 nM for 71G2 chimeric llama-human IgG1 mAb (antibody, V domains shown, llama VH on human IgG1 CH1-CH2-CH3, llama VL on human lambda CL) VH: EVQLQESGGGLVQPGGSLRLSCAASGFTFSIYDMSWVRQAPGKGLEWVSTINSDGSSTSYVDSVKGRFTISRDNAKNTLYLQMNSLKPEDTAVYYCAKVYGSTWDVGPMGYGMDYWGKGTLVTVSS VL: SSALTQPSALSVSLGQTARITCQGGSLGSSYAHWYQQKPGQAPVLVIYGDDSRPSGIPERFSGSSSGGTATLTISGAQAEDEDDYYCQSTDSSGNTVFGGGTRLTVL ?
a: 31.7
